The origin of these recorded values is ChEMBL document CHEMBL3988442.

The entries below are paired with their reported Percent Effect.
# TARGET OF ASSAY: Shiga toxin 2 (Escherichia coli O157:H7) (UniProt P09385+P09386)
# ASSAY NOTES: E. coli 0.157:H7 Shiga Toxin SOP - stx2 screening assay
# Format: functional
# Design: scale not given: direction of the effect not stated beside the values
# ASSAY CONDITIONS: 30 µM
# output: bare number, implied unit %

>  <MOLECULE>
CCC1(CO)CCCN(c2ncccc2C#N)C1 (stereo unspecified)

>  <TARGET OF ASSAY>
Shiga toxin 2 (Escherichia coli O157:H7) (UniProt P09385+P09386)

>  <MEAS VALUE>
-8.75

$$$$

Reported Percent Effect for CCc1cnc(CN(C)C2CCN(CCS(C)(=O)=O)C2)o1 (stereo unspecified) was -7.2

Reported Percent Effect for COC(=O)C1CCN(c2cncc(-n3nc(C)cc3C)n2)CC1 was -51.5

Reported Percent Effect for CC(=O)Nc1nc(CN2CCCC2Cn2cncn2)cs1 (stereo unspecified) was -44

Reported Percent Effect for c1ccc(CO[C@@H]2CO[C@@]3(CCN(Cc4ccccn4)C3)C2)nc1 was -15.8

Reported Percent Effect for Cc1ccc(N2CCO[C@H]3CN(Cc4ccncc4)C[C@H]32)nn1 was -5.64

----------
The entries below are paired with their reported Percent Effect.
# TARGET OF ASSAY: Shiga toxin 2 (Escherichia coli O157:H7) (UniProt P09385+P09386)
# ASSAY NOTES: E. coli 0.157:H7 Shiga Toxin SOP - stx2 screening assay
# Assay type: functional
# Design: scale not given: direction of the effect not stated beside the values
# ASSAY CONDITIONS: 30 µM
# output: bare number, implied unit %

>  <COMPOUND>
O=C(c1ccccc1-n1cccn1)N1CCCN(c2cccnn2)CC1

>  <Percent Effect, %>
33

$$$$

Reported Percent Effect for Cn1cnc2c1CCN(Cc1noc(-c3ccccc3)n1)C2 was 12.6

Reported Percent Effect for O=C(Cn1cc(C(=O)O)ccc1=O)Nc1ccc(F)cc1Cl was -28.6

Reported Percent Effect for CCCc1nnsc1C(=O)NCC1CCN(c2ccccn2)CC1 was -0.668

----------
# TARGET OF ASSAY: Tyrosyl-tRNA synthetase, putative (Trypanosoma cruzi (strain CL Brener)) (UniProt Q4DSP6)
# Sequence (Q4DSP6 as listed by the source): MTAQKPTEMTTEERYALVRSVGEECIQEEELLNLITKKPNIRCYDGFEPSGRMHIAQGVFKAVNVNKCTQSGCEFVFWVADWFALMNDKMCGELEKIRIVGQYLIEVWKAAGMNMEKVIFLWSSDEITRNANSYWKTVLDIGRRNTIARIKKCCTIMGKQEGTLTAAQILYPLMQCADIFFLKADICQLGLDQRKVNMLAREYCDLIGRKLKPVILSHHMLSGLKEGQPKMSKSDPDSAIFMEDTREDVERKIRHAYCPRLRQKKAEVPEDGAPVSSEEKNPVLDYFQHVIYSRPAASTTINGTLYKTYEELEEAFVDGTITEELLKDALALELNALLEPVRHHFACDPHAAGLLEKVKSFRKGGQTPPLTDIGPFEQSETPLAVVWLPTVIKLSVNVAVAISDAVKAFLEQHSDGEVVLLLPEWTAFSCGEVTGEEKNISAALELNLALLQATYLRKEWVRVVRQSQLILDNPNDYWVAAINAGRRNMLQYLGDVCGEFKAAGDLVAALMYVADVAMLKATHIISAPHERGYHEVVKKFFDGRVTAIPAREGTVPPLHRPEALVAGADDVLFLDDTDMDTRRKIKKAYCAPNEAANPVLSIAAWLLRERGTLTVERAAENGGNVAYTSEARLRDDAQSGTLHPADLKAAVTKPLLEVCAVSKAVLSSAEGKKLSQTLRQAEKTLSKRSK
# ASSAY NOTES: Trypanosoma cruzi tyrosyl tRNA synthetase (TcYRS) SOP
# Type: functional
# Parameters: scale not given: direction of the effect not stated beside the values
# ASSAY CONDITIONS: 30 µM
Lab note - cut at 20% for Percent Effect: t if strictly below, f if not.

Study these solved cases before continuing.
>  <COMPOUND>
O=C(N[C@H]1CN[C@H]2CCCO[C@H]21)c1cccnc1

>  <CATEGORY>
t

$$$$
>  <COMPOUND>
Cc1nc(CN2C[C@@H]3OCCN(c4ncc(F)cn4)[C@@H]3C2)cs1

>  <CATEGORY>
t

$$$$

Okay, now this compound:
Does the reported Percent Effect of O=C1[C@H]2CN(Cc3ccoc3)C[C@H]2CN1Cc1ccncc1 stay below 20%? t

----------
# TARGET OF ASSAY: Proteasome subunit beta (Trypanosoma cruzi) (UniProt O96673)
# Sequence (O96673 as listed by the source): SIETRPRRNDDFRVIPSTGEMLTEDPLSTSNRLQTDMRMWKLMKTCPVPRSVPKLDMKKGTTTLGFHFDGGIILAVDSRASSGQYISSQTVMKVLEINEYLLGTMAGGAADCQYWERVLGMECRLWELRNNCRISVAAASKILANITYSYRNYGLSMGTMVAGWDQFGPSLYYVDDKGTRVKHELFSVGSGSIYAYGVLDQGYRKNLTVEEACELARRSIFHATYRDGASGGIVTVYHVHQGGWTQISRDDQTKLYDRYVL
# ASSAY NOTES: Trypanosoma cruzi proteasome chymotrypsin-like activity (TcProtChymo) assay. Note: in the data most compounds retested in dose-response had high values.
# Assay type: functional
# Set-up: scale not given: direction of the effect not stated beside the values
# ASSAY CONDITIONS: 9.37 µM
RECORDED ENDPOINT: Percent Effect (%)
# output: bare number, implied unit %

>  <COMPOUND>
Fc1cnc(N2CCCC3(CCN(Cc4ccsc4)C3)C2)nc1 (stereo unspecified)

>  <Percent Effect, %>
8.56

$$$$
>  <COMPOUND>
O=C1CSC(c2ccc(O)c(Cl)c2)c2c(n(C3CCOCC3)[nH]c2=O)N1 (stereo unspecified)

>  <Percent Effect, %>
8.87

$$$$
>  <COMPOUND>
Cc1ccc(CN2CCC3(CC2)C(=O)N(C)c2ccccc23)s1

>  <Percent Effect, %>
16.8

$$$$
>  <COMPOUND>
c1ccc(O[C@H]2CC[C@H]3[C@H]2OCCN3Cc2nccs2)nc1

>  <Percent Effect, %>
13.6

$$$$
>  <COMPOUND>
c1cc(COC[C@@H]2CCC[C@@]23CNCCO3)ccn1

>  <Percent Effect, %>
10.7

$$$$

Reported Percent Effect for CC1=N[C@@]2(CC[C@@H]3CNC[C@@H]32)C(=O)N1CC(C)C was 11.2

Reported Percent Effect for O=C1OCCC1N1CCN(C(=O)Cc2c[nH]c3ccccc23)CC1 (stereo unspecified) was 15.7

Reported Percent Effect for Cc1cccc(CN2C(=O)C[C@H]3[C@@H]2CCN3CC2CC2)n1 was 12.3

Reported Percent Effect for CC(=O)N1CCOCC2(CN(Cc3ccccn3)CCO2)C1 (stereo unspecified) was 9.74

Reported Percent Effect for O=C1CSC(c2ccsc2)c2sccc2N1 (stereo unspecified) was 7.21

Reported Percent Effect for CCN1CCC2(COCc3cnc(NCC4CC4)nc32)C1 (stereo unspecified) was 3.68
